Hey, just so you know, these numbers are from ChEMBL document CHEMBL3259769.

tested-system: Bifunctional epoxide hydrolase 2 (Homo sapiens, UniProt P34913)
Sequence (P34913 whole entry): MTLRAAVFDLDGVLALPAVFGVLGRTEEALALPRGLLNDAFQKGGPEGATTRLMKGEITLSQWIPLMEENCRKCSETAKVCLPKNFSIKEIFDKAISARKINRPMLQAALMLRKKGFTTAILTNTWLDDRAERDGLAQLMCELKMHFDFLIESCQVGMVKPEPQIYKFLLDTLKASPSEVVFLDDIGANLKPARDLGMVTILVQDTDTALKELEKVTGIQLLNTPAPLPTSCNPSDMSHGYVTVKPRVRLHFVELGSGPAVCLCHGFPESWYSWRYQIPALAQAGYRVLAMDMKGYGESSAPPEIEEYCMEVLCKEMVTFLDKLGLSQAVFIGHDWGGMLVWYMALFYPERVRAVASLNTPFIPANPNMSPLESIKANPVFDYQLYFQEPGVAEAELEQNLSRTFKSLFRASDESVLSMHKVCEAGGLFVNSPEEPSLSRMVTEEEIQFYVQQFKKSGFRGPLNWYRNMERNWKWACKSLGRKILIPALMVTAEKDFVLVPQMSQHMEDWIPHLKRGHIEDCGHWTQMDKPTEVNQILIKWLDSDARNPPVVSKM
protocol-notes: Inhibition of recombinant human soluble epoxide hydrolase using CMNPC as substrate preincubated for 5 mins followed by substrate addition measured at 5 mins post substrate addition by fluorescence assay in presence of 0.1 mg/mL BSA
Label key: Yes means IC50 under 40 nM; No means IC50 of 40 nM or more.

Known results for compounds:
>>> class_name("CCC(CNC(=O)NCCCCNC(=O)NCC(CC)C12CC3CC(CC(C3)C1)C2)C12CC3CC(CC(C3)C1)C2 (stereo unspecified)")
"Yes"
>>> class_name("CCC(CNC(=O)NCCCCCCCCNC(=O)NCC(CC)C12CC3CC(CC(C3)C1)C2)C12CC3CC(CC(C3)C1)C2 (stereo unspecified)")
"No"
>>> class_name("O=C(NCCCCNC(=O)NC1C2CC3CC(C2)CC1C3)NC1C2CC3CC(C2)CC1C3 (stereo unspecified)")
"Yes"
>>> class_name("O=C(NCCNC(=O)NCC12CC3CC(CC(C3)C1)C2)NCC12CC3CC(CC(C3)C1)C2")
"No"

Alright, here's another compound for you.
Prompt line: hey, is IC50 for O=C(NCCCCCCCCNC(=O)NC1C2CC3CC(C2)CC1C3)NC1C2CC3CC(C2)CC1C3 (stereo unspecified) lower than 40 nM or not?
Response line: Yes
